test system: Puccinia triticina; experiment: Wheat brown rust (PUCCRT) disease control on wheat seedlings; format: in vivo; parameters: key: A: > 80; B: ≤ 80; C: Not Tested; D: No Activity Observed in the Reported Assay; settings: low volume application, 125.1 g/H, 3 Day Curative
readoutKind: PUCCRT 3DC, LV activity at 125.1 g/H (% Control rating)

Reference set, count: 8
[
  {
    "molecule": "COc1ccnc(C(=O)NC(C)C(=O)OC(C)COC(=O)C(C)C)c1OCOC(C)=O (stereo not shown)",
    "measured": "D"
  },
  {
    "molecule": "CCC(CCOC)C(Oc1ccccc1)C(C)OC(=O)C(C)NC(=O)c1nccc(OC)c1OC(C)=O (stereo not shown)",
    "measured": "A (> 80)"
  },
  {
    "molecule": "CCC(CC)[C@@H](Oc1ccc(F)cc1)[C@H](C)OC(=O)[C@@H](NC(=O)c1nccc(OC)c1OCOC(C)=O)C(C)C",
    "measured": "A (> 80)"
  },
  {
    "molecule": "COc1ccnc(C(=O)N[C@H](C(=O)O[C@@H](C)[C@H](Oc2cccc(Cl)c2)C(C)C)C(C)C)c1OCOC(C)=O",
    "measured": "A (> 80)"
  },
  {
    "molecule": "COc1ccnc(C(=O)N[C@@H](C)C(=O)O[C@@H](C)[C@@H](CC(C)C)Oc2ccccc2)c1OCOC(C)=O",
    "measured": "A (> 80)"
  },
  {
    "molecule": "COc1ccnc(C(=O)N[C@@H](C)C(=O)O[C@@H](C)[C@H](Oc2ccccc2Cl)c2ccccc2)c1OC(C)=O",
    "measured": "A (> 80)"
  },
  {
    "molecule": "CCCOC[C@@H](Oc1ccccc1)[C@H](C)OC(=O)[C@H](C)NC(=O)c1nccc(OC)c1OC(C)=O",
    "measured": "A (> 80)"
  },
  {
    "molecule": "COc1ccnc(C(=O)N[C@H](C(=O)O[C@@H](C)[C@H](Oc2cccc(Cl)c2)C(C)C)C(C)C)c1OC(C)=O",
    "measured": "A (> 80)"
  }
]

Entry CCCOCC(C)OC(=O)C(C)NC(=O)c1nccc(OC)c1OCOC(C)=O (stereo not shown) — recorded PUCCRT 3DC, LV activity at 125.1 g/H (% Control rating) = D

Entry COCC[C@H](Cc1ccc(F)cc1)[C@@H](OC(=O)C(C)C)[C@H](C)OC(=O)[C@H](C)NC(=O)c1nccc(OC)c1OCOC(C)=O — recorded PUCCRT 3DC, LV activity at 125.1 g/H (% Control rating) = A (> 80)

Entry COc1ccnc(C(=O)N[C@@H](C)C(=O)O[C@@H](C)[C@H](Oc2cccc(Cl)c2)c2ccccc2)c1OCOC(C)=O — recorded PUCCRT 3DC, LV activity at 125.1 g/H (% Control rating) = B (≤ 80)

Entry COc1ccnc(C(=O)N[C@@H](C)C(=O)O[C@@H](C)[C@H](Oc2cccc(-c3ccccc3)c2)C(C)C)c1OCOC(C)=O — recorded PUCCRT 3DC, LV activity at 125.1 g/H (% Control rating) = A (> 80)

Entry CCC(CC)[C@@H](Oc1cccc(Cl)c1)[C@H](C)OC(=O)[C@H](C)NC(=O)c1nccc(OC)c1OC(C)=O — recorded PUCCRT 3DC, LV activity at 125.1 g/H (% Control rating) = A (> 80)

Entry CCC(CC)[C@@H](Oc1ccc(C(F)(F)F)cc1)[C@H](C)OC(=O)[C@H](C)NC(=O)c1nccc(OC)c1OC(C)=O — recorded PUCCRT 3DC, LV activity at 125.1 g/H (% Control rating) = B (≤ 80)

Entry C=CC[C@@H](OCc1ccccc1)[C@H](C)OC(=O)[C@H](C)NC(=O)c1nccc(OC)c1OCOC(C)=O — recorded PUCCRT 3DC, LV activity at 125.1 g/H (% Control rating) = A (> 80)

Entry CCC(CC)[C@@H](Oc1cccc(-c2ccccc2)c1)[C@H](C)OC(=O)[C@H](C)NC(=O)c1nccc(OC)c1OC(C)=O — recorded PUCCRT 3DC, LV activity at 125.1 g/H (% Control rating) = B (≤ 80)

###

system: Zymoseptoria tritici; assay: Leaf blotch of wheat (SEPTTR) disease control on wheat seedlings; assay type: in vivo; conditions: HV application at 100 ppm; 3 Day Curative; wheat leaf blotch
readoutKind: SEPTTR 3DC disease control rating, HV activity

[
  {
    "compound": "CCC(CCC(C)C)C(Oc1ccccc1)C(C)OC(=O)C(C)NC(=O)c1nccc(OC)c1O (stereo not shown) [Cmpd 317]",
    "measured": "B (≤ 80)"
  },
  {
    "compound": "CCCOC[C@@H](Oc1ccccc1)[C@H](C)OC(=O)[C@H](C)NC(=O)c1nccc(OC)c1O [Cmpd 310]",
    "measured": "B (≤ 80)"
  },
  {
    "compound": "CCCOC(CC)C(Oc1ccccc1)C(C)OC(=O)C(NC(=O)c1nccc(OC)c1OC(C)=O)C(C)C (stereo not shown) [Cmpd 451]",
    "measured": "A (> 80)"
  },
  {
    "compound": "CCC(CC)C(Oc1ccc(-c2ccccc2)cc1)C(C)OC(=O)C(C)NC(=O)c1nccc(OC)c1O (stereo not shown) [Cmpd 387]",
    "measured": "D"
  }
]

Entry CCC(CC)[C@@H](Oc1ccccc1)[C@H](C)OC(=O)[C@H](C)NC(=O)c1nccc(OC)c1O [Cmpd 306] — recorded SEPTTR 3DC disease control rating, HV activity = A (> 80)

Entry CC[C@H](Oc1ccccc1)[C@@H](Oc1ccccc1)[C@H](C)OC(=O)[C@H](C)NC(=O)c1nccc(OC)c1O [Cmpd 309] — recorded SEPTTR 3DC disease control rating, HV activity = B (≤ 80)

Entry CCCOC[C@H](C)OC(=O)[C@H](C)NC(=O)c1nccc(OC)c1O [Cmpd 334] — recorded SEPTTR 3DC disease control rating, HV activity = B (≤ 80)

Entry COc1ccnc(C(=O)NC(C)C(=O)OC(C)C(Oc2ccc3ccccc3c2)C(C)C)c1O (stereo not shown) [Cmpd 398] — recorded SEPTTR 3DC disease control rating, HV activity = B (≤ 80)

Entry CCC(CC)[C@@H](Oc1cc(F)ccc1F)[C@H](C)OC(=O)[C@@H](NC(=O)c1nccc(OC)c1O)C(C)C [Cmpd 409] — recorded SEPTTR 3DC disease control rating, HV activity = D

Entry COc1ccnc(C(=O)N[C@@H](C)C(=O)O[C@@H](C)COC(=O)C(C)C)c1O [Cmpd 336] — recorded SEPTTR 3DC disease control rating, HV activity = B (≤ 80)

Entry COc1ccnc(C(=O)N[C@@H](C)C(=O)O[C@@H](C)[C@H](Oc2ccc(Cl)cc2Cl)C2CCCC2)c1O [Cmpd 346] — recorded SEPTTR 3DC disease control rating, HV activity = B (≤ 80)

Entry COc1ccnc(C(=O)N[C@@H](C)C(=O)O[C@@H](C)[C@H](OCC2CC2)c2ccccc2)c1O [Cmpd 319] — recorded SEPTTR 3DC disease control rating, HV activity = A (> 80)

Entry CCC(CC)C(Oc1cc(F)ccc1F)C(C)OC(=O)C(C)NC(=O)c1nccc(OC)c1O (stereo not shown) [Cmpd 382] — recorded SEPTTR 3DC disease control rating, HV activity = B (≤ 80)

Entry COc1ccnc(C(=O)N[C@@H](C)C(=O)O[C@@H](C)COCc2ccccc2)c1O [Cmpd 331] — recorded SEPTTR 3DC disease control rating, HV activity = D

Entry COc1ccnc(C(=O)N[C@H](C)C(=O)O[C@H](C)[C@@H](Oc2ccccc2)C(C)C)c1O [Cmpd 351] — recorded SEPTTR 3DC disease control rating, HV activity = D

Entry CCC(CC)[C@H](Oc1ccc(Cl)cc1)[C@H](C)OC(=O)[C@H](C)NC(=O)c1nccc(OC)c1O [Cmpd 420] — recorded SEPTTR 3DC disease control rating, HV activity = B (≤ 80)

Entry COc1ccnc(C(=O)N[C@@H](C)C(=O)O[C@@H](C)COC(C)(C)C)c1O [Cmpd 341] — recorded SEPTTR 3DC disease control rating, HV activity = B (≤ 80)

Entry CCC(CC)[C@@H](Oc1ccc(C(F)(F)F)cc1)[C@H](C)OC(=O)[C@@H](NC(=O)c1nccc(OC)c1O)C(C)C [Cmpd 412] — recorded SEPTTR 3DC disease control rating, HV activity = B (≤ 80)

Entry COc1ccnc(C(=O)NC(C)C(=O)OC(C)C(Oc2ccc(F)cc2)C(C)C)c1O (stereo not shown) [Cmpd 391] — recorded SEPTTR 3DC disease control rating, HV activity = A (> 80)

###

tested on: Zymoseptoria tritici; assay: Leaf blotch of wheat (SEPTTR) disease control on wheat seedlings; assay type: in vivo; settings: high volume application, 100 ppm, 1 day protectant
readoutKind: SEPTTR 1DP disease control rating, HV activity at 100 ppm

Reference set, count: 4
[
  {
    "compound": "COc1ccnc(C(=O)N[C@@H](C)C(=O)O[C@@H](C)[C@H](Oc2ccc(C)cc2)C2CC2)c1O",
    "measured": "B (≤ 80)"
  },
  {
    "compound": "COc1ccnc(C(=O)N[C@@H](C)C(=O)O[C@@H](C)[C@H](Oc2ccc(C)cc2Cl)C(C)(C)C)c1O",
    "measured": "B (≤ 80)"
  },
  {
    "compound": "COc1ccnc(C(=O)NC(C)C(=O)OC(C)C(OCC(C)C)c2ccccc2)c1O (stereo not drawn) [Cmpd 819]",
    "measured": "B (≤ 80)"
  },
  {
    "compound": "COc1ccnc(C(=O)N[C@H](C(=O)O[C@@H](C)[C@H](Oc2ccccc2)C(C)C)C(C)C)c1O",
    "measured": "B (≤ 80)"
  }
]

With those in mind, consider the next compound.
Entry CC(NC(=O)c1nccc(Br)c1O)C(=O)OC(C)C(Oc1ccccc1)C(C)C (stereo not drawn) — recorded SEPTTR 1DP disease control rating, HV activity at 100 ppm = D
